TARGET UNDER TEST: FL_Reg1 (full-length human Regnase-1) phosphorylation by TBK1 (Homo sapiens, UniProt Q5D1E8)
Construct: made in house; host or cells: Expi293 cells
Sequence (Q5D1E8 whole entry): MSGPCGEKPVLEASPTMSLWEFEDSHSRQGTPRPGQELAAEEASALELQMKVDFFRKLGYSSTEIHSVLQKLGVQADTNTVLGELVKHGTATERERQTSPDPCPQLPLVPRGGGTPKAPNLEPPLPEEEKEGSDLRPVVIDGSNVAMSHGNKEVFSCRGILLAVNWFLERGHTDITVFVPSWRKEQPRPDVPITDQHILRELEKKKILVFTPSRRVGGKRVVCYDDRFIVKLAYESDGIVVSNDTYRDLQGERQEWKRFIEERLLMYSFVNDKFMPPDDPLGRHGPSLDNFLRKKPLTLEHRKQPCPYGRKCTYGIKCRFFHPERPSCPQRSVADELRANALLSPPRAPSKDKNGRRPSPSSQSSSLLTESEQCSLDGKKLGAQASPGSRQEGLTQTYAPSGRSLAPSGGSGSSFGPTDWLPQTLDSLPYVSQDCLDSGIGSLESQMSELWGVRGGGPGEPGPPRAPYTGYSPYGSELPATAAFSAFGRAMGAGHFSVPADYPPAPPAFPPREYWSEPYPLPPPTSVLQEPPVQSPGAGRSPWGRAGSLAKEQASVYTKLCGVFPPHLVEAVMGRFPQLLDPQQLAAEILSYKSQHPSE
ASSAY NOTES: Regnase-1 phosphorylation inhibition by compounds (AlphaScreen), TBK1, full-length Regnase-1
Type: biochemical
EXPERIMENTAL PARAMETERS: Table 11; 2 nM Regnase-1; AlphaScreen; read-out: 50% inhibition concentration, Regnase-1 phosphorylation, FL_Reg1, TBK1
Experimental: The full-length sequence of human Regnase-1 (UniProt ID: Q5D1E8) was used to prepare a construct having a FLAG tag on the N-terminal side and a recognition sequence for biotin ligase BirA on the C-terminal side (FL_Reg1) as a target protein. […] Phosphorylated Regnase-1 was detected by the AlphaScreen system. […] After mixing 2 nM of the above-mentioned Regnase-1 and the compound, phosphorylated Regnase-1 produced by the phosphorylation reaction was detected by the AlphaScreen system. […]
Residues, ends and D or L forms follow the SMILES beside them.
VALUE TYPE: pIC50
Numbers only, as −log10 of the molar value.

Find the recorded pIC50 belonging to CC[C@H](C)[C@@H]1NC(=O)[C@H](CC(N)=O)NC(=O)[C@H](Cc2ccc(O)cc2)NC(=O)[C@H](Cc2c[nH]c3ccccc23)NC(=O)[C@H](CO)NC(=O)[C@H](CC(N)=O)NC(=O)[C@H](C)NC(=O)[C@H](Cc2ccc(O)cc2)NC(=O)CNC(=O)[C@H](C)N(C)C(=O)C[C@@H](C(=O)N2CCCC2)NC(=O)[C@H](Cc2c[nH]c3ccccc23)NC1=O [PP2] (HELM PEPTIDE1{[meA].G.Y.A.N.S.W.Y.N.I.W.D.[C1CCN([*:1])C1]}$PEPTIDE1,PEPTIDE1,1:R1-12:R3$$$V2.0) and report it.
4.66

The reported measurements were obtained from patent US20250018014A1.
